# test: in vitro
# Type: cell-based
endpoint-label: EC50 (µg/mL)

- O=C(Nc1ccc(OC2CNC2)cc1)c1cc(C(=O)Nc2ccc(OC3CNC3)cc2)ncn1: 164
- N=C(N)NCCSc1ccc(NC(=O)Nc2cccc(CCNC(=N)N)c2)cc1C(F)(F)F: 317
- COc1cc(SCCN)c(C(F)(F)F)cc1NC(=O)c1cc(C(=O)Nc2cc(C(F)(F)F)c(SCCN)cc2OC)nc(SCCN)n1: 5

I. NCCSc1c(N)cc(C(F)(F)F)cc1NC(=O)c1cc(C(=O)Nc2cc(C(F)(F)F)cc(NC(=O)c3cccnc3)c2SCCN)ncn1
II. N=C(N)NCCc1ccc(C(F)(F)F)cc1NC(=O)c1cc(C(=O)Nc2cc(C(F)(F)F)ccc2CCNC(=N)N)ncn1
III. N=C(N)NCCCc1cc(SCCN)c(NC(=O)c2cc(C(=O)Nc3cc(C(F)(F)F)c(CCCNC(=N)N)cc3SCCN)ncn2)cc1C(F)(F)F
IV. CC(=O)Nc1cc(C(F)(F)F)cc(NC(=O)c2cc(C(=O)Nc3cc(C(F)(F)F)cc(NC(C)=O)c3SCCN)ncn2)c1SCCN
Please list the entries, largest EC50 first. Please express your ranking as an ordered list of the labels.
II, IV, III, I

###

# test: Cytotoxicity against 3T3 cells
# Type: cell-based
# experimental-context: mouse, 3T3 cells; read-out: Cytotoxicity 3T3 EC50
Listed compounds paired with reported pEC50
Note: pEC50 values are expressed as the negative base-10 logarithm of concentration in M.

• NCCSc1c(N)cc(C(F)(F)F)cc1NC(=O)c1cn(C2CC2)c2cc(N3CCNCC3)c(F)cc2c1=O = 4.09
• N=C(N)NCCN1CCc2ccc(NC(=O)c3cc(C(=O)Nc4ccc5c(c4)CCN(CCNC(=N)N)CC5)ncn3)cc2CC1 = 3.77
• N=C(N)N1CCN(c2ccc(-c3cc(-c4ccc(N5CCN(C(=N)N)CC5)cc4)ncn3)cc2)CC1 = 3.51

For record `O=C(Nc1ccc(O[C@H]2CCNC2)cc1)c1cc(C(=O)Nc2ccc(O[C@H]3CCNC3)cc2)ncn1` the listed pEC50 is 3.32

get_value(item= `N=C(N)NCCSc1cc(SCCNC(=N)N)c(C(F)(F)F)cc1NC(=O)c1cc(C(=O)Nc2cc(C(F)(F)F)c(SCCNC(=N)N)cc2SCCNC(=N)N)ncn1` , readout=pEC50) returns 4.51

Record `N=C(N)NCCc1ccc(-c2ccc(-c3ccc(CCNC(=N)N)cc3)s2)cc1` . Reported pEC50: 4.30

Entry N=C(N)N1CCC(Oc2cc(OC3CCN(C(=N)N)C3)c(C(F)(F)F)cc2NC(=O)c2cc(C(=O)Nc3cc(C(F)(F)F)c(O[C@@H]4CCN(C(=N)N)C4)cc3O[C@@H]3CCN(C(=N)N)C3)ncn2)C1 (stereo partly drawn) ; pEC50 = 4.49

Per the records, this compound ( `O=C(Nc1ccc(O[C@@H]2CCNC2)c(Cl)c1)c1cc(C(=O)Nc2ccc(O[C@@H]3CCNC3)c(Cl)c2)ncn1` ) has pEC50 equal to 4.40

###

Reported EC50 values follow for various compounds
# Tested on: HepG2 cells
# test: Cytotoxicity against HepG2 cells
# Assay type: cell-based
// return numeric value only (unit: µM, not printed)

For the compound N=C(N)N1CCC(Oc2ccc(NC(=O)Nc3ccc(OC4CCN(C(=N)N)C4)c(C(F)(F)F)c3)cc2C(F)(F)F)C1 (stereo not shown) , the measured EC50 on HepG2 cells was 347

Note to self: EC50 of `NCCc1cccc(-c2cnc(-c3cccc(CCN)c3)s2)c1` with HepG2 cells was 584

# lookup: `NCCc1cccc(-c2ccc(-c3cccc(CCN)c3)s2)c1` on HepG2 cells, EC50 = 186
